- test system: Aurora A kinase (Homo sapiens)
- experiment description: IC50 determination for inhibitors of Aurora A kinase (ELISA, GST-Histone H3 substrate)
- cond: mutant Aurora A kinase, 30 μM ATP, 40 minutes; read-out: IC50 Aurora A kinase inhibition
pIC50: −log10 of the molar value.
observable: pIC50

Below: 2 compounds and their reported pIC50.
Cc1ccc(Oc2nc(Nc3cc(C)[nH]n3)cc3ccccc23)cc1    7.18
Cc1cc(Nc2cc3ccccc3c(Nc3cccnc3)n2)n[nH]1    6.62

a = Cc1cc(Nc2cc3cc(OCCN4CCOCC4)ccc3c(-c3ccccc3)n2)n[nH]1
b = COc1ccc2c(Nc3ccc(Br)cc3)nc(Nc3cc(C)[nH]n3)cc2c1
Look at a and b . Which one has the lower recorded pIC50 number? Response format: the label of the selected entry. a
(a: 6.53, b: 7.37)

* * *

- test system: Aurora A kinase (Homo sapiens, UniProt O14965)
- Sequence (O14965 1-403): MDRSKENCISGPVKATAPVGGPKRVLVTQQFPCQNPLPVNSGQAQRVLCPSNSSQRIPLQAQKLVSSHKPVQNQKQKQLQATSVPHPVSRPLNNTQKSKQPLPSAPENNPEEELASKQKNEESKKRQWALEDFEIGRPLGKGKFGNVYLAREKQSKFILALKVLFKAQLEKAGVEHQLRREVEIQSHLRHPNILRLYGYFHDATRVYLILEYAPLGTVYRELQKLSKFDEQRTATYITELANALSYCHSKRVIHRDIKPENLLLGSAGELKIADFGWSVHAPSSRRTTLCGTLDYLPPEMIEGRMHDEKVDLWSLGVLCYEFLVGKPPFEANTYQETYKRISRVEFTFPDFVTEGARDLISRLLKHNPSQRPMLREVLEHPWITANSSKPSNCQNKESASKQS
- experiment description: IC50 determination for inhibitors of Aurora A kinase (ELISA, GST-Histone H3 substrate)
- cond: mutant Aurora A kinase, 30 μM ATP, 40 minutes; read-out: IC50 Aurora A kinase inhibition
pIC50: −log10 of the molar value.
observable: pIC50

c1ccc2c(-c3ccncc3)nc(Nc3cc[nH]n3)cc2c1    5.46
Cc1cc(Nc2cc3ccccc3c(Oc3ccccc3Cl)n2)n[nH]1    5.78
c1ccc2c(-c3ccsc3)nc(Nc3cc[nH]n3)cc2c1    6.02

P = COc1ccc2c(Sc3cccc(F)c3)nc(Nc3cc(C)[nH]n3)cc2c1
Q = CC(C)COc1nc(Nc2cc[nH]n2)cc2ccccc12
# argmax over pIC50 for candidates P and Q Response format: the label of the selected entry. P
(P: 6.68, Q: 5.83)

A = COc1cccc2c(-c3cccc(C#N)c3)nc(Nc3cc(C)[nH]n3)cc12
B = Cc1cc(Nc2cc3ccccc3c(-c3ccncc3)n2)n[nH]1
Look at A and B . Which one has the lower recorded pIC50 number? Response format: the label of the selected entry. B

* * *

- test system: Aurora A kinase (Homo sapiens)
- experiment description: IC50 determination for inhibitors of Aurora A kinase (ELISA, GST-Histone H3 substrate)
- cond: mutant Aurora A kinase, 30 μM ATP, 40 minutes; read-out: IC50 Aurora A kinase inhibition
observable: IC50 (nM)

Below: 6 compounds and their reported IC50.
COc1ccc2c(-c3cnn(C)c3)nc(Nc3cc[nH]n3)cc2c1    653
COc1ccc(Nc2nc(Nc3cc[nH]n3)cc3ccccc23)cc1OC    259
Cc1cc(Nc2cc3ccccc3c(Sc3ccccc3)n2)n[nH]1    497
COc1cc2cc(Nc3cc(C)[nH]n3)nc(OC3CCCC3)c2cc1OC    21
CCOCCOCCOc1nc(Nc2cc[nH]n2)cc2ccccc12    822
COc1ccc2c(-c3ccc4ccccc4c3)nc(Nc3cc(C)[nH]n3)cc2c1    390

P = CC(=O)Nc1ccc(Oc2nc(Nc3cc(C)[nH]n3)cc3ccccc23)cc1
Q = COc1ccc2c(-c3ccc4ccccc4c3)nc(Nc3cc[nH]n3)cc2c1
# argmax over IC50 for candidates P and Q Response format: the label of the selected entry. Q
